Data origin, for the record: patent US20030232009A1

- Test Target: T1, Human 18 mer peptide (human)
- T1 construct: synthetic peptide from the RB exon
- T1 peptide: VSSVQTPHLPTHADSQTPC
- Experimental Protocol: recombinant antibody on peptide
Outcome Measure: binding result

binder="AB-CD45RB-XG2-662 (antibody, human IgG2, V domains shown, recombinant human IgG2 kappa; also called sc662) VH: QVQLVESGGDLVKPGGSLRLSCAASGFSFSGYYLSWIRQAPGKGLEWVSYISLSGSFIKYADSVKGRFTISRDNAKKTLHLQMNSLRAEDTAVYYCARRTGTTTVFDYWGQGTLVTVSS VL: EVVMTQSPATLSVSPGERATLSCRASQSVNSNLAWYQQRPGQAPRLLIYGASTRVTGIPARFSGSGSGTEFTLTISSLQSEDFAVYYCQQYNNWPLTFGGGTKVEIK" result="no binding"
binder="AB-CD45RB-XG2-009 (antibody, human IgG2, V domains shown, recombinant human IgG2 kappa; also called sc009; 16C9 (sc009)) VH: QVQLVESGGGVVQPGRSLRLSCAASGFTFSNYGMHWVRQAPGKGLEWVAVIWYDGSKRFYAGSVKGRFTISRDNSKNTLYLQMNSLRAEDTAVYYCARTTDYWGQGTMVTVSS VL: DIVMTQTPLSLSVTPGQPASISCKSSQSLLHSDGKTYLYWYLQKPGQPPQLLIYEVSNRFSGVPDRFSGSGSGTDFTLKISRVEAEDVGLYWCMQSIQLPITFGQGTRLEIK" result="no binding"
binder="AB-CD45RB-XG2-502 (antibody, human IgG2, V domains shown, recombinant human IgG2 kappa; also called sc502) VH: QVQLVESGGGVVQPGRSLRVSCAASGFTFSNYGMHWVRQAPDKGLEWVAVIWYDGSKKFYADSVKGRFTISRDNSQNTLSLQMSSLRAEDTAVYYCARGGGDFDFWGQGTLVTVSS VL: KIVMTQSPATLSVSPGERATLSCRASQSVSGNYLAWYQRRPGQAPRLLIYGASTRATGIPARFSGSGSGTEFTLTISSLQSEDFAVYYCQQYGKWPPLTFGGGTKVEIK" result="no binding"
